# TARGET_OF_ASSAY: human M2 receptor (Homo sapiens)
# Sequence (P08172 whole entry): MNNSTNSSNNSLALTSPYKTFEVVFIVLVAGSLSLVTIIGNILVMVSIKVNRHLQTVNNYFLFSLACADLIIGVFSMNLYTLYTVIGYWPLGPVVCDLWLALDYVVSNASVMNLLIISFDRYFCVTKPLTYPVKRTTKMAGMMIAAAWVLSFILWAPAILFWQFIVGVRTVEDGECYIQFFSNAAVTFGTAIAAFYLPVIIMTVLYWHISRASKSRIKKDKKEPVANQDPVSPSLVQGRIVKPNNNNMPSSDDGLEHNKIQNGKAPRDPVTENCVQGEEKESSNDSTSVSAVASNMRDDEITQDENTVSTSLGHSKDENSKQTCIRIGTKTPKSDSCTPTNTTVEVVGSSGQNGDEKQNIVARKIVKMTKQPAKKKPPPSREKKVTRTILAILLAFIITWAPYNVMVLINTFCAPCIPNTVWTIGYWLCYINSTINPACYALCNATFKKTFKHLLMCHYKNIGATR
# PROTOCOL: Functional M2-GIRK1/4 activation test: positive cooperativity (alpha factor)
# CONDITION_DETAILS: shift of acetylcholine dose-response curve (Allosteric EC50 shift); CHO-DUKX-M2-GIRK cells
QUANTITY: Cooperativity (alpha factor)

COMPOUND	QUANTITY	ASSAY_VALUE
O=C(NC(c1ccccc1Cl)C(F)(F)F)c1cn(-c2ncc(F)cc2F)c2nc(N3C[C@@H](O)[C@H](O)C3)ccc2c1=O (single isomer, unassigned)	Cooperativity (alpha factor)	57

[a] CC[C@H](NC(=O)c1cn(-c2ncc(F)cc2F)c2nc(N3CCNC3=O)ccc2c1=O)C(F)(F)F
[b] CC1CC(=O)N(c2ccc3c(=O)c(C(=O)N[C@H](C4CC4)C(F)(F)F)cn(-c4ncc(F)cc4F)c3n2)C1 (single isomer, unassigned) [Example 28]
[c] O=C(N[C@H](C1CC1)C(F)(F)F)c1cn(-c2ncc(F)cc2F)c2nc(N3C[C@@H](O)CC3=O)ccc2c1=O
INPUT: Order these by Cooperativity (alpha factor), descending, and give the full ranking. // list labels; follow requested order
OUTPUT: c, a, b
(c: 61, a: 32, b: 17)

[A] CCC(COC(F)(F)F)NC(=O)c1cn(-c2ncc(F)cc2F)c2nc(N3C[C@@H](O)CC3=O)ccc2c1=O (single isomer, unassigned) [Example 18]
[B] CC[C@H](NC(=O)c1cn(-c2ncc(F)cc2F)c2nc(N3CC(C)CC3=O)ccc2c1=O)C(F)(F)F (stereo partly drawn)
[C] O=C(NC(C(F)(F)F)C(F)(F)F)c1cn(-c2ncc(F)cc2F)c2nc(N3C[C@@H](O)[C@H](O)C3)ccc2c1=O
INPUT: Arrange these 3 compounds in increasing order of Cooperativity (alpha factor). // list labels; follow requested order
OUTPUT: B, A, C
(B: 14, A: 34, C: 68)
